SYSTEM: Bifunctional protein GlmU (Mycobacterium tuberculosis (strain ATCC 25618 / H37Rv)) (UniProt P9WMN3)
Sequence (P9WMN3 whole entry, looked up): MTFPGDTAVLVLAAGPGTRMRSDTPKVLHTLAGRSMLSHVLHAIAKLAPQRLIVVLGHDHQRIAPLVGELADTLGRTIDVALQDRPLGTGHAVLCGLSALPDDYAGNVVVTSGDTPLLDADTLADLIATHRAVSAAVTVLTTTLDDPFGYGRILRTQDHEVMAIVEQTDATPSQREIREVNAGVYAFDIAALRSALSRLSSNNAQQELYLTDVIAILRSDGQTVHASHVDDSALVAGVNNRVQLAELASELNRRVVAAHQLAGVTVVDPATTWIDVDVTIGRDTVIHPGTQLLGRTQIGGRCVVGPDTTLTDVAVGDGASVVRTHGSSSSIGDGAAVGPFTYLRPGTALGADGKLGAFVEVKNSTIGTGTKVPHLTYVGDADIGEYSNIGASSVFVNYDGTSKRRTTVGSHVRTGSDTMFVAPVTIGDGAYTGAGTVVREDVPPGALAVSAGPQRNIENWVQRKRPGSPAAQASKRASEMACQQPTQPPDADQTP
PROTOCOL: inhibition of mycobacterial GlmU enzyme – biochemical, glucosamine-1-phosphate acetyltransferase (AID 1376);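 note: 0% = complete reaction with vehicle and 100% = reaction without substrate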
PROTOCOL CONDITIONS: M. tuberculosis GlmU acetyltransferase enzyme assay; stronger effect = higher value;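 tested at 30 µM in the primary screen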
In all, about 220,000 compounds went through this assay and about 530 (0.24%) were called active. For the sample, actives were picked, then their nearest neighbours and some compounds at random. Results with a measured potency or affinity are listed apart.
Recorded inhibition, one value per entry.
Express it in %; write the number only.

COMPOUND: Cc1nn(-c2ccc(Cl)cc2)c(NC(=O)C(C)C)c(-c2ccccc2)c1=O
PROPERTY: inhibition
MEASUREMENT UNITS: %
MEASUREMENT: -2.2
--
COMPOUND: O=C(Cc1ccccc1[N+](=O)[O-])Nc1ccc2c(c1)OCO2
PROPERTY: inhibition
MEASUREMENT UNITS: %
MEASUREMENT: 0.87
--
COMPOUND: COc1ccc(-n2c(SCC(=O)NCCCN3CCCC3=O)nnc2C(C)N2CCCCC2)cc1 (stereo not drawn)
PROPERTY: inhibition
MEASUREMENT UNITS: %
MEASUREMENT: -0.73

Return reported inhibition; argument: Cc1ccccc1CSc1nnc(-c2ccco2)n1Cc1ccco1
1.77

Return reported inhibition; argument: C=CCc1cc(/C=C/c2nc(O)c([N+](=O)[O-])c(=O)[nH]2)cc(OC)c1O
14.5

Return reported inhibition; argument: CCSc1nnc(NS(=O)(=O)c2ccc(C)cc2)s1
-1.65
